assay: Liver microsomes stability, human; settings: human, microsomes
Strictly below 6 h in half-life at 2 μM: YES. Otherwise: NO.

compound: [2H]C([2H])N1CCC(c2c[nH]c3cccc(OCc4ccccc4)c23)C1 (single isomer, unassigned)
category.label: YES

compound: [2H]C1([2H])CC(c2c[nH]c3cccc(OCc4ccccc4)c23)C([2H])([2H])N1C (single isomer, unassigned)
category.label: YES

compound: [2H]C1([2H])CC(c2c[nH]c3cccc(O)c23)C([2H])([2H])N1 (centres unmarked)
category.label: NO

compound: [2H]C1([2H])CC(c2c[nH]c3cccc(O)c23)C([2H])([2H])N1C (centres unmarked)
category.label: YES

---

assay: Liver microsomes stability, human; conditions: Human, With NADPH, 60 min

compound: [2H]C([2H])N1CCC(c2c[nH]c3cccc(OCc4ccccc4)c23)C1 (single isomer, unassigned) [Compound I-36]
Remaining Percentage (%) 60 min: 46.97
--
compound: [2H]C1([2H])CC(c2c[nH]c3cccc(O)c23)C([2H])([2H])N1C (stereo not shown) [Compound I-34]
Remaining Percentage (%) 60 min: 88.74
--
compound: [2H]C([2H])N1CCC(c2c[nH]c3cccc(O)c23)C1 (stereo not shown) [Compound I-32]
Remaining Percentage (%) 60 min: 88.84
--
compound: [2H]C1([2H])CC(c2c[nH]c3cccc(OCc4ccccc4)c23)C([2H])([2H])N1C (single isomer, unassigned) [Compound I-37]
Remaining Percentage (%) 60 min: 65.70

---

Assay: Liver microsomes stability, human
Details: human, microsomes
Procedure: The objective of this study was to estimate in vitro metabolic stability of 1-12 in pooled human and male mouse liver microsomes. The concentrations of parent compounds in reaction systems were evaluated by LC-MS/MS for estimating the stability in pooled human and male mouse liver microsomes. The in vitro intrinsic clearances of test compounds were determined as well. […] All calculations were carried out using Microsoft Excel. Peak areas were determined from extracted ion chromatograms. […]

molecule: [2H]C([2H])N1CCC(c2c[nH]c3cccc(OCc4ccccc4)c23)C1 (single isomer, unassigned)
microsomal CLint at 2 μM, µL/min/mg: 25.2
//
molecule: [2H]C1([2H])CC(c2c[nH]c3cccc(O)c23)C([2H])([2H])N1 (centres unmarked)
microsomal CLint at 2 μM, µL/min/mg: 1.05
//
molecule: [2H]C1([2H])CC(c2c[nH]c3cccc(O)c23)C([2H])([2H])N1C (centres unmarked)
microsomal CLint at 2 μM, µL/min/mg: 3.98
//
molecule: [2H]C([2H])N1CCC(c2c[nH]c3cccc(O)c23)C1 (centres unmarked)
microsomal CLint at 2 μM, µL/min/mg: 3.94
//
molecule: [2H]C1([2H])CC(c2c[nH]c3cccc(OCc4ccccc4)c23)C([2H])([2H])N1C (single isomer, unassigned)
microsomal CLint at 2 μM, µL/min/mg: 14

---

We begin with a simple list: items and their reported Predicted hepatic CL.
experiment: Liver microsomes stability, rat; details: Rat liver microsomes, with NADPH

compound: [2H]C1([2H])CC(c2c[nH]c3cccc(O)c23)C([2H])([2H])N1C (stereo not drawn) [Compound I-34]
Predicted hepatic CL [mL/min/kg]: 23.24
//
compound: CN(C)CCc1c[nH]c2cccc(O)c12 [Psilocin, 4-hydroxy-N,N-dimethyltryptamine, reference compound]
Predicted hepatic CL [mL/min/kg]: 18.53
//
compound: [2H]C1([2H])CC(c2c[nH]c3cccc(OCc4ccccc4)c23)C([2H])([2H])N1C (single isomer, unassigned) [Compound I-37]
Predicted hepatic CL [mL/min/kg]: 26.15

---

assay: Liver microsomes stability, mouse; conditions: male, mouse, microsomes
Label rule, in plain words: microsomal CLint at 2 μM of 20 µL/min/mg and up is met, under 20 µL/min/mg is not met.

compound: [2H]C1([2H])CC(c2c[nH]c3cccc(O)c23)C([2H])([2H])N1C (centres unmarked) [Compound I-34]
category.label: not met
//
compound: [2H]C([2H])N1CCC(c2c[nH]c3cccc(OCc4ccccc4)c23)C1 (single isomer, unassigned) [Compound I-36]
category.label: met
//
compound: [2H]C1([2H])CC(c2c[nH]c3cccc(OCc4ccccc4)c23)C([2H])([2H])N1 (centres unmarked) [Compound I-35]
category.label: not met
//
compound: [2H]C([2H])N1CCC(c2c[nH]c3cccc(O)c23)C1 (centres unmarked) [Compound I-32]
category.label: not met
//
compound: [2H]C1([2H])CC(c2c[nH]c3cccc(OCc4ccccc4)c23)C([2H])([2H])N1C (single isomer, unassigned) [Compound I-37]
category.label: met

---

We begin with a simple list: items and their reported Remaining Percentage (%) 0 min.
assay: Liver microsomes stability, human; settings: Human, With NADPH, 0 min

molecule: [2H]C1([2H])CC(c2c[nH]c3cccc(O)c23)C([2H])([2H])N1C (stereo not drawn)
unit.abbreviation: %
Remaining Percentage (%) 0 min: 100.00

molecule: CN(C)CCc1c[nH]c2cccc(O)c12 [Psilocin, 4-hydroxy-N,N-dimethyltryptamine, reference compound]
unit.abbreviation: %
Remaining Percentage (%) 0 min: 100.00

molecule: [2H]C1([2H])CC(c2c[nH]c3cccc(OCc4ccccc4)c23)C([2H])([2H])N1 (stereo not drawn)
unit.abbreviation: %
Remaining Percentage (%) 0 min: 100.00

---

We begin with a simple list: items and their reported Remaining Percentage (%) 60 min.
Assay: Liver microsomes stability, mouse
Details: Mouse, Without NADPH, 60 min
Protocol: The objective of this study was to estimate in vitro metabolic stability of 1-12 in pooled human and male mouse liver microsomes. The concentrations of parent compounds in reaction systems were evaluated by LC-MS/MS for estimating the stability in pooled human and male mouse liver microsomes. The in vitro intrinsic clearances of test compounds were determined as well. […] All calculations were carried out using Microsoft Excel. Peak areas were determined from extracted ion chromatograms. […]

compound: [2H]C1([2H])CC(c2c[nH]c3cccc(OCc4ccccc4)c23)C([2H])([2H])N1C (single isomer, unassigned)
Remaining Percentage (%) 60 min: 93.26

compound: [2H]C1([2H])CC(c2c[nH]c3cccc(O)c23)C([2H])([2H])N1 (stereo not shown)
Remaining Percentage (%) 60 min: 118.32

compound: [2H]C([2H])N1CCC(c2c[nH]c3cccc(O)c23)C1 (stereo not shown)
Remaining Percentage (%) 60 min: 116.03

compound: [2H]C1([2H])CC(c2c[nH]c3cccc(OCc4ccccc4)c23)C([2H])([2H])N1 (stereo not shown)
Remaining Percentage (%) 60 min: 90.87

compound: [2H]C1([2H])CC(c2c[nH]c3cccc(O)c23)C([2H])([2H])N1C (stereo not shown)
Remaining Percentage (%) 60 min: 96.60

compound: CN(C)CCc1c[nH]c2cccc(O)c12 [Psilocin, 4-hydroxy-N,N-dimethyltryptamine, reference compound]
Remaining Percentage (%) 60 min: 91.98

compound: [2H]C([2H])N1CCC(c2c[nH]c3cccc(OCc4ccccc4)c23)C1 (single isomer, unassigned)
Remaining Percentage (%) 60 min: 101.31

---

assay: Liver microsomes stability, rat; conditions: rat, microsomes
Label rule, in plain words: microsomal CLint at 2 μM of 10 µL/min/mg and up is Condition met, under 10 µL/min/mg is Condition not met.

molecule: [2H]C1([2H])CC(c2c[nH]c3cccc(O)c23)C([2H])([2H])N1C (stereo not drawn)
category.label: Condition met
//
molecule: [2H]C1([2H])CC(c2c[nH]c3cccc(O)c23)C([2H])([2H])N1 (stereo not drawn)
category.label: Condition met
//
molecule: [2H]C([2H])N1CCC(c2c[nH]c3cccc(OCc4ccccc4)c23)C1 (single isomer, unassigned)
category.label: Condition met
//
molecule: [2H]C1([2H])CC(c2c[nH]c3cccc(OCc4ccccc4)c23)C([2H])([2H])N1C (single isomer, unassigned)
category.label: Condition met
//
molecule: [2H]C([2H])N1CCC(c2c[nH]c3cccc(O)c23)C1 (stereo not drawn)
category.label: Condition not met
//
molecule: [2H]C1([2H])CC(c2c[nH]c3cccc(OCc4ccccc4)c23)C([2H])([2H])N1 (stereo not drawn)
category.label: Condition met

---

Assay: Liver microsomes stability, rat
Conditions: Rat, With NADPH, 0 min
Protocol: The objective of this study was to estimate in vitro metabolic stability of 1-12 in pooled human and male mouse liver microsomes. The concentrations of parent compounds in reaction systems were evaluated by LC-MS/MS for estimating the stability in pooled human and male mouse liver microsomes. The in vitro intrinsic clearances of test compounds were determined as well. […] All calculations were carried out using Microsoft Excel. Peak areas were determined from extracted ion chromatograms. […]
We begin with a simple list: items and their reported Remaining Percentage (%) 0 min.

molecule: [2H]C([2H])N1CCC(c2c[nH]c3cccc(OCc4ccccc4)c23)C1 (single isomer, unassigned)
Remaining Percentage (%) 0 min: 100.00%
//
molecule: CN(C)CCc1c[nH]c2cccc(O)c12 [Psilocin, 4-hydroxy-N,N-dimethyltryptamine, reference compound]
Remaining Percentage (%) 0 min: 100.00%
//
molecule: [2H]C1([2H])CC(c2c[nH]c3cccc(OCc4ccccc4)c23)C([2H])([2H])N1 (stereo not shown)
Remaining Percentage (%) 0 min: 100.00%
//
molecule: [2H]C1([2H])CC(c2c[nH]c3cccc(O)c23)C([2H])([2H])N1 (stereo not shown)
Remaining Percentage (%) 0 min: 100.00%
//
molecule: [2H]C1([2H])CC(c2c[nH]c3cccc(O)c23)C([2H])([2H])N1C (stereo not shown)
Remaining Percentage (%) 0 min: 100.00%
//
molecule: [2H]C([2H])N1CCC(c2c[nH]c3cccc(O)c23)C1 (stereo not shown)
Remaining Percentage (%) 0 min: 100.00%
//
molecule: [2H]C1([2H])CC(c2c[nH]c3cccc(OCc4ccccc4)c23)C([2H])([2H])N1C (single isomer, unassigned)
Remaining Percentage (%) 0 min: 100.00%
